src = ChEMBL document CHEMBL1828512

target_or_system: Cystic fibrosis transmembrane conductance regulator (Homo sapiens, UniProt P13569)
Sequence (P13569 whole entry): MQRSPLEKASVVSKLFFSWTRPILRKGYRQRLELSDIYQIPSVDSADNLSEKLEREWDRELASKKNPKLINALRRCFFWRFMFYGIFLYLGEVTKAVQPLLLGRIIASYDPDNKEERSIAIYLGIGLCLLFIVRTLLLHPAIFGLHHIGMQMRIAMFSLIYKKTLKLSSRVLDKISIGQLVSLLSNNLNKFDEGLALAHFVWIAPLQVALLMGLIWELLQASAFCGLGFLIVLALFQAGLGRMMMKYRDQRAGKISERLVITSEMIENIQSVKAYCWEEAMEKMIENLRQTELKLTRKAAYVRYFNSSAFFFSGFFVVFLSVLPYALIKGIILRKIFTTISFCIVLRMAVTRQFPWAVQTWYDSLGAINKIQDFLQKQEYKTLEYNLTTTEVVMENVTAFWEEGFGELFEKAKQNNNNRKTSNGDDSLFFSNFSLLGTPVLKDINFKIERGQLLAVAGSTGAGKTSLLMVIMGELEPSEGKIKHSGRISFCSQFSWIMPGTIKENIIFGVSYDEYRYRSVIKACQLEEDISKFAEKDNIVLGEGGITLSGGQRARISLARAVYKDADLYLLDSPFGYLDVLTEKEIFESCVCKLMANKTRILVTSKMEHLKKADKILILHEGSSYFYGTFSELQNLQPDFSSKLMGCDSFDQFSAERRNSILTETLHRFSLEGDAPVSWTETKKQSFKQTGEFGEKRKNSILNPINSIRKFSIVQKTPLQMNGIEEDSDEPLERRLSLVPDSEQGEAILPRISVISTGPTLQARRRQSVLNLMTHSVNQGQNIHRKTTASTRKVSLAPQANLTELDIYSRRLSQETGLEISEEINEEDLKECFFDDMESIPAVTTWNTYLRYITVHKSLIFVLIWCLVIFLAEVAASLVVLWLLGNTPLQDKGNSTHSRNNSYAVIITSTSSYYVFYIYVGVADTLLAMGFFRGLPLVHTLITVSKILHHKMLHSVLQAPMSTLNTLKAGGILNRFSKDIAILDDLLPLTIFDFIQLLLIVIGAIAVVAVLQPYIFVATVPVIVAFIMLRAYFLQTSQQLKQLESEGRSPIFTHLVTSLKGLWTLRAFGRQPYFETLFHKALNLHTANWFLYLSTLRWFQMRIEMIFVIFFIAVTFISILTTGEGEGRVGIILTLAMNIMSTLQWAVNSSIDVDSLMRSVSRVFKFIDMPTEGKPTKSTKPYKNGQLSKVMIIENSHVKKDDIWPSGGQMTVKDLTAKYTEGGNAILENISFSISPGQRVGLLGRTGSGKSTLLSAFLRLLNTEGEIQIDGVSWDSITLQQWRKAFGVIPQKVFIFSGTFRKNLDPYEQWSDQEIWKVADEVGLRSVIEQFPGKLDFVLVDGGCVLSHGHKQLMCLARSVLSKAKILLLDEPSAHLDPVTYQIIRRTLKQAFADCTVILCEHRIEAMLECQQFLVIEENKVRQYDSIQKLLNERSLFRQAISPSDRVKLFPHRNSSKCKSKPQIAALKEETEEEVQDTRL
method: Inhibition of human wild-type CFTR expressed in FRT cells coexpressing YFP-H148Q assessed as inhibition of cAMP agonist-induced iodide influx after 45 mins by fluorescence plate-reader analysis
Type: functional, cell-based
test_readout: IC50

| compound | IC50 |
| --- | --- |
| Cc1ccc(C2c3c4c(c(-c5ccccc5)n3-c3ccccc3N2S(C)(=O)=O)c(=O)n(C)c(=O)n4C)o1 (stereo unspecified) | Not Active |
| CC(=O)N1c2ccccc2-n2c(-c3ccccc3)c3c(=O)n(C)c(=O)n(C)c3c2C1c1ccc(C)o1 (stereo unspecified) | Not Active |
| Cn1c(=O)c2c(-c3ccccc3)n3c(c2n(C)c1=O)C(c1ccc(CO)o1)Nc1ccccc1-3 (stereo unspecified) | Not Active |
| Cc1ccc(C2c3c4c(c(-c5ccccc5)n3-c3ccccc3N2C(=O)CCl)c(=O)n(C)c(=O)n4C)o1 (stereo unspecified) | Not Active |

Name the reported IC50 value associated with the compound Cn1c(=O)c2c(-c3ccccc3)n3c(c2n(C)c1=O)C(c1cc2ccccc2o1)Nc1ccccc1-3 (stereo unspecified)
Not Active

Name the reported IC50 value associated with the compound Cn1c(=O)c2c(-c3ccccc3)n3c(c2n(C)c1=O)C(c1ccc(-c2ccccc2)o1)Nc1ccccc1-3 (stereo unspecified)
Not Active
